assay: In vivo pharmacokinetics study; conditions: male, Sprague-Dawley, plasma; rat, PO 10 mg/kg, mean

compound: Cc1ccc(NC(=O)c2ccc(CN3CCN(C)CC3)c(C(F)(F)F)c2)cc1OC1CCN(C(=O)c2cccnc2)CC1 [CHMFL-074]
AUC(0-t): 1130 ng·h/mL

* * *

experiment: In vivo pharmacokinetics study; settings: male, Sprague-Dawley, plasma; rat, IV 1mg/kg, mean

smiles_representation: Cc1ccc(NC(=O)c2ccc(CN3CCN(C)CC3)c(C(F)(F)F)c2)cc1OC1CCN(C(=O)c2cccnc2)CC1
AUC(0-t), ng·h/mL: 337

* * *

target: PDGFRβ (Homo sapiens); test: Promega ADP-Glo biochemical kinase assay; conditions: 100 μM ATP, read-out: IC50 against PDGFRβ
Sequence (P09619 33-1106): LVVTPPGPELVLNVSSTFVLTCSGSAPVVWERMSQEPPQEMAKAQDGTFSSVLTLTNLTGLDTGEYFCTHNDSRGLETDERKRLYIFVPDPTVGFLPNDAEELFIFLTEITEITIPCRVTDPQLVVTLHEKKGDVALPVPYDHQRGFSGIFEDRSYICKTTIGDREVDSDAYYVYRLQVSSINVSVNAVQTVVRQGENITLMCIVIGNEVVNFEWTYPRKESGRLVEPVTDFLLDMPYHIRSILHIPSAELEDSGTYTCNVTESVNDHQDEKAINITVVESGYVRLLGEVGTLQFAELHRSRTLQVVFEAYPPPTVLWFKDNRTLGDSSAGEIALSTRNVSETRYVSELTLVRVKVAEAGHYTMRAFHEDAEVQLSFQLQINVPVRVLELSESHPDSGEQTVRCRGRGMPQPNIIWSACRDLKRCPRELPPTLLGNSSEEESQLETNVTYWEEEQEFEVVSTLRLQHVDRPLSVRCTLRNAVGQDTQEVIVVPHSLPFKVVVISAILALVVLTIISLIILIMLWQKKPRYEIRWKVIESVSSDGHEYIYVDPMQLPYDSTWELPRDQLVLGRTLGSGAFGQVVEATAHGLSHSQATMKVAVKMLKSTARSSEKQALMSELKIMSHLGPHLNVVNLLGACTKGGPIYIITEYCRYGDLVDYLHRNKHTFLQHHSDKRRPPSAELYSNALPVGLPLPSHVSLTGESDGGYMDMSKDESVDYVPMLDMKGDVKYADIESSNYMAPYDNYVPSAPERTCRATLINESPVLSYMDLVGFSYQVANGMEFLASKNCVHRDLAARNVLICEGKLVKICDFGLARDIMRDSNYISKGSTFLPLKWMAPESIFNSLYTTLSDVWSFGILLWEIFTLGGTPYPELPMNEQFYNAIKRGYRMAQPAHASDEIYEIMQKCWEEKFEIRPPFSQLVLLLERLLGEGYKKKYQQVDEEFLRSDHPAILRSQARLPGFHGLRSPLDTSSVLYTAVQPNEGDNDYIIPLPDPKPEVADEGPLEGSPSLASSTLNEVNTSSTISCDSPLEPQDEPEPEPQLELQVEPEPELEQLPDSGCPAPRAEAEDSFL

smiles_representation: Cc1ccc(NC(=O)c2ccc(CN3CCN(C)CC3)c(C(F)(F)F)c2)cc1OC1CCN(C(=O)c2cccnc2)CC1
target_of_assay: PDGFRβ (Homo sapiens)
IC50: 88 nM

Reference source: paper PMC5216742
